Reported IKZF2 % protein reduction at 10 µM values for the following compounds.
target: IKZF2 (Helios) (Homo sapiens, UniProt Q96SW2+Q9UKS7); experiment: Prolabel quantification of IKZF2 protein levels in 293GT cells; assay type: cell-based; settings: 24 h, Pro-label assay, 293GT cells, 10 μM, read-out: IKZF2 % protein reduction at 10 μM, 24 h
Sequence (Q9UKS7 whole entry): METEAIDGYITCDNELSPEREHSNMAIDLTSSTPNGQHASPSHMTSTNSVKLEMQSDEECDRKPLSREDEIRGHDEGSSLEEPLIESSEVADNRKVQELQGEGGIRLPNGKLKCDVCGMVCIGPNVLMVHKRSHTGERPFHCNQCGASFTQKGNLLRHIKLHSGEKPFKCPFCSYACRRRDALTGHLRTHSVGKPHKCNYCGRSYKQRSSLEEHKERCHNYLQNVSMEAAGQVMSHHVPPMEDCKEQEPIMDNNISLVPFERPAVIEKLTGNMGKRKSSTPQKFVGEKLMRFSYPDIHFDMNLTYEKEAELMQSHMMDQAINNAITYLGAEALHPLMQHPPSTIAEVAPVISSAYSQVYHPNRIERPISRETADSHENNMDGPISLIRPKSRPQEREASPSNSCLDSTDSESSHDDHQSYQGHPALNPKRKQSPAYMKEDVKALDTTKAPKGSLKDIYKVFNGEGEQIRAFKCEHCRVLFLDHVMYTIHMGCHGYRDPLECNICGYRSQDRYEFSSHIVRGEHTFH
Sequence (Q96SW2 whole entry): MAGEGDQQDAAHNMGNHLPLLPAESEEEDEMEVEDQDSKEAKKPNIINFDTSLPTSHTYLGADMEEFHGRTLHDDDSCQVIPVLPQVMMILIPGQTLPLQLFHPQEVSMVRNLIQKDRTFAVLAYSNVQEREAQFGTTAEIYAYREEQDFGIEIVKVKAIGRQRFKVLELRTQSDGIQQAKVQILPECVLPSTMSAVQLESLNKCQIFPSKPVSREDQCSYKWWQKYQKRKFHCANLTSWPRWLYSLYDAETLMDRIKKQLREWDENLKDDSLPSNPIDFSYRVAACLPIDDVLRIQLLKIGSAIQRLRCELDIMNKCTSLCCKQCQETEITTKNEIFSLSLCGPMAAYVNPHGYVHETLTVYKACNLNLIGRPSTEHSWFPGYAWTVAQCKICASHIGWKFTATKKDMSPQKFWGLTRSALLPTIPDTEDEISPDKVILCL
Sequence (Q16531 whole entry partner): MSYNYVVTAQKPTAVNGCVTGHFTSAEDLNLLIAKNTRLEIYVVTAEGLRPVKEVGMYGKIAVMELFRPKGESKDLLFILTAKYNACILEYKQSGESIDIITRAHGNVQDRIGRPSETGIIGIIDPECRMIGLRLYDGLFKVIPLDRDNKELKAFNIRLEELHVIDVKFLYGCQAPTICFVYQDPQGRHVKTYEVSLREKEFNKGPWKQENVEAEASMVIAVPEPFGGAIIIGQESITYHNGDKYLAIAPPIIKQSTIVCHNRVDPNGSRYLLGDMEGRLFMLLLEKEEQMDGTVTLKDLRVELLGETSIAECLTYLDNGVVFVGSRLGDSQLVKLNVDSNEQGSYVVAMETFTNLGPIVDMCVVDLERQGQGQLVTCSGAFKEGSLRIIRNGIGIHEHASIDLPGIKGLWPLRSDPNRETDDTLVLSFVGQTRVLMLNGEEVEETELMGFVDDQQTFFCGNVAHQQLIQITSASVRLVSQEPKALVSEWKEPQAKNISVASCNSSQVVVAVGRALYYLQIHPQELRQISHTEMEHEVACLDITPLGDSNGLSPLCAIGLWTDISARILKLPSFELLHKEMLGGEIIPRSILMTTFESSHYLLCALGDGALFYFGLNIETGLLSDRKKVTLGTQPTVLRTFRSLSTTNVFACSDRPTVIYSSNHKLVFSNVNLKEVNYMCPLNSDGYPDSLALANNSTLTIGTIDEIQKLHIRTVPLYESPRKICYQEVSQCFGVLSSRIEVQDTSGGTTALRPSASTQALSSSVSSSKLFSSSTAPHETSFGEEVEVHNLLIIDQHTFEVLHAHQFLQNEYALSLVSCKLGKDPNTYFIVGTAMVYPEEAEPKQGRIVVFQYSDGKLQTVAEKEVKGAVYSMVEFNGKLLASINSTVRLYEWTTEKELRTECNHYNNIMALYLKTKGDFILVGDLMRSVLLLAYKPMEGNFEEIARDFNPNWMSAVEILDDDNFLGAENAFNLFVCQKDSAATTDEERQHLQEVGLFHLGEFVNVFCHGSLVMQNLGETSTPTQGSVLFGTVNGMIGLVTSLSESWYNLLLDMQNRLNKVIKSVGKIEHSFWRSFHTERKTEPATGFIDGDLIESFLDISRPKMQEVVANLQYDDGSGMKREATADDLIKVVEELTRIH
PROPERTY LABEL: IKZF2 % protein reduction at 10 µM (%)

>  <COMPOUND>
CC1(C#N)CC(CNC2CCCCC2Oc2ccc3c(c2)CN(C2CCC(=O)NC2=O)C3=O)C1 (centres unmarked)

>  <TARGET ENTITY>
IKZF2 (Helios) (Homo sapiens, UniProt Q96SW2+Q9UKS7)

>  <UNIT STRING>
%

>  <RESULT>
84

$$$$
>  <COMPOUND>
CCN(CC)[C@@H]1CCC[C@@H]1Oc1ccc2c(c1)CN(C1CCC(=O)NC1=O)C2=O (some centres unmarked)

>  <TARGET ENTITY>
IKZF2 (Helios) (Homo sapiens, UniProt Q96SW2+Q9UKS7)

>  <UNIT STRING>
%

>  <RESULT>
0

$$$$
>  <COMPOUND>
O=C1CCC(N2Cc3cc(OC4CCCC4N4CCCC5(CCC5)C4)ccc3C2=O)C(=O)N1 (single isomer, unassigned)

>  <TARGET ENTITY>
IKZF2 (Helios) (Homo sapiens, UniProt Q96SW2+Q9UKS7)

>  <UNIT STRING>
%

>  <RESULT>
85

$$$$
>  <COMPOUND>
O=C1CCC(N2Cc3cc(O[C@H]4CCCC[C@@H]4NCCC4CCOCC4)ccc3C2=O)C(=O)N1 (some centres unmarked)

>  <TARGET ENTITY>
IKZF2 (Helios) (Homo sapiens, UniProt Q96SW2+Q9UKS7)

>  <UNIT STRING>
%

>  <RESULT>
87

$$$$
>  <COMPOUND>
CCCN[C@H]1CCCCC[C@@H]1Oc1ccc2c(c1)CN(C1CCC(=O)NC1=O)C2=O (some centres unmarked)

>  <TARGET ENTITY>
IKZF2 (Helios) (Homo sapiens, UniProt Q96SW2+Q9UKS7)

>  <UNIT STRING>
%

>  <RESULT>
88

$$$$
>  <COMPOUND>
O=C1CCC(N2Cc3cc(O[C@H]4CCCCC[C@@H]4NCC4CC(F)(F)C4)ccc3C2=O)C(=O)N1 (some centres unmarked)

>  <TARGET ENTITY>
IKZF2 (Helios) (Homo sapiens, UniProt Q96SW2+Q9UKS7)

>  <UNIT STRING>
%

>  <RESULT>
84

$$$$
>  <COMPOUND>
O=C1CCC(N2Cc3cc(O[C@H]4CCCC[C@@H]4NCc4cccnc4)ccc3C2=O)C(=O)N1 (some centres unmarked)

>  <TARGET ENTITY>
IKZF2 (Helios) (Homo sapiens, UniProt Q96SW2+Q9UKS7)

>  <UNIT STRING>
%

>  <RESULT>
79

$$$$
>  <COMPOUND>
O=C1CCC(N2Cc3cc(O[C@H]4CCC[C@@H]4N4Cc5ccccc5C4)ccc3C2=O)C(=O)N1 (some centres unmarked)

>  <TARGET ENTITY>
IKZF2 (Helios) (Homo sapiens, UniProt Q96SW2+Q9UKS7)

>  <UNIT STRING>
%

>  <RESULT>
70

$$$$
